biological target: NR1/NR2A (Homo sapiens (Human), UniProt Q05586+Q12879); assay: FDSS Ca2+ influx inhibition assay in HEK293 cells expressing NR1/NR2A; format: cell-based; conditions: 3 μM glutamate, 3 μM glycine, 1 mM Ca2+, read-out: Binned Activity
Sequence (Q12879 23-1464, other chains not shown): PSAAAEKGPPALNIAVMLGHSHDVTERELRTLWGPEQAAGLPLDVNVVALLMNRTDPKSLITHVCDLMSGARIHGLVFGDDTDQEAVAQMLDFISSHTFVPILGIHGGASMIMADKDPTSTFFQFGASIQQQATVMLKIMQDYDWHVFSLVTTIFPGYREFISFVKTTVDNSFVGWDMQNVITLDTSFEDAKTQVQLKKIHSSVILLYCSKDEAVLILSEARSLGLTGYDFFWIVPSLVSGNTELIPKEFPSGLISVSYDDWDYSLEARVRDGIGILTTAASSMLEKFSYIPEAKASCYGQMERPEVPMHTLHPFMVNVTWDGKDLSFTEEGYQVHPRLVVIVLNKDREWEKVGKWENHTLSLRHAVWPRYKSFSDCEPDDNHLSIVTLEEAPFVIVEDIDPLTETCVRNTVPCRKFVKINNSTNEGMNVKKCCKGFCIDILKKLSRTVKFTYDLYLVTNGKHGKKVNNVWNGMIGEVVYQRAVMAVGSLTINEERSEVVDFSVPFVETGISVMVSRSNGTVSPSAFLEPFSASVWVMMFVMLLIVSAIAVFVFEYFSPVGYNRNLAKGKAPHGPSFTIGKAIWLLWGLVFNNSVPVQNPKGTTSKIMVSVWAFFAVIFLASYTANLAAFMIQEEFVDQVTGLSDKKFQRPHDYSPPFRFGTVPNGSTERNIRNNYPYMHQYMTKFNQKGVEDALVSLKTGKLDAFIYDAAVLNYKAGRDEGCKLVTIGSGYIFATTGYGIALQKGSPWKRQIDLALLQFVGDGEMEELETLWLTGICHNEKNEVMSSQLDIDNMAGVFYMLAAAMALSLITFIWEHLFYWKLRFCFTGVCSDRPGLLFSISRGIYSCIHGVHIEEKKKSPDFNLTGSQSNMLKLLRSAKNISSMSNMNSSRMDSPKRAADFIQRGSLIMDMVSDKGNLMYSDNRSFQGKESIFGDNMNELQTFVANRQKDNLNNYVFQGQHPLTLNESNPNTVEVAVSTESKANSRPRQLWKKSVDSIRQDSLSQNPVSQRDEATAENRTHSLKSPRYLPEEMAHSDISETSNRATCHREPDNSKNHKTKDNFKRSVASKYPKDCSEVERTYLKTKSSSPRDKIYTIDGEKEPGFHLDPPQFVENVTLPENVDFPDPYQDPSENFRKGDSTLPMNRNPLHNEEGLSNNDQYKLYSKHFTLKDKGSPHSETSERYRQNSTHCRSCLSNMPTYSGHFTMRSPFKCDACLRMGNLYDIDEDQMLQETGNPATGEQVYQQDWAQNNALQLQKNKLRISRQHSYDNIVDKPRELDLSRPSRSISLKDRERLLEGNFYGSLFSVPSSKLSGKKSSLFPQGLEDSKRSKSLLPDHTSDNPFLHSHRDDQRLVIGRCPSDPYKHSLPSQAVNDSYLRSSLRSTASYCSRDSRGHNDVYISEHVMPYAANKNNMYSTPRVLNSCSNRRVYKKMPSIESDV
The reader will find reported IC50 values listed item by item below.

Example results:
> print(dat)
                          compoundstructure  quantitymeasured       result
1  O=C(NCc1cncs1)c1ccc(CNS(=O)(=O)c2ccc(F)c(Cl)c2)cn1              IC50  0.1 to 1 µM
2  COc1cccc(CNC(=O)c2ccc(CNS(=O)(=O)c3ccc(F)c(Cl)c3)cn2)c1              IC50   1 to 10 µM
3  Cc1ncc(CNC(=O)c2ccc(CNS(=O)(=O)c3cc(F)cc(F)c3)cn2)s1              IC50      > 10 µM
4  Cc1cnc(CNC(=O)c2ccc(CNS(=O)(=O)c3ccc(F)c(Cl)c3)nn2)cn1              IC50      > 10 µM

Value lookup for IC50; key = "Cc1ncc(CNC(=O)c2cnc(CNS(=O)(=O)c3cc(Cl)cc(Cl)c3)c(C)n2)s1"
> 10 µM

Value lookup for IC50; key = "O=C(NCc1ncccc1C(F)(F)F)c1ccc(CNS(=O)(=O)c2ccc(F)c(Cl)c2)nc1"
> 10 µM

###

The reader will find reported pIC50 values listed item by item below.
target: NR1/NR2A (Homo sapiens (Human), UniProt Q05586+Q12879); experiment: FDSS Ca2+ influx inhibition assay in HEK293 cells expressing NR1/NR2A; type: cell-based; settings: 3 μM glutamate, 3 μM glycine, 1 mM Ca2+, read-out: Binned Activity
pIC50: −log10 of the molar value.

Example results:
> print(dat)
                                   compound  quantitymeasured        result
1  Cc1ncc(CNC(=O)c2cnc(CNC(=O)c3cccc(Cl)c3)cn2)s1             pIC50        < 5.00
2  Cc1ncc(CNC(=O)c2cnc(CNS(=O)(=O)c3cccs3)cn2)s1             pIC50  5.00 to 6.00
3  Cc1ncc(CNC(=O)c2ccc(CNC(=O)c3cccc(F)c3)cn2)s1             pIC50        < 5.00
4  Cn1cnc(CNC(=O)c2cnc(CNS(=O)(=O)c3ccc(F)c(Cl)c3)cn2)c1             pIC50        < 5.00

Value lookup for pIC50; key = "O=C(NCc1ccncn1)c1ccc(CNS(=O)(=O)c2ccc(F)c(Cl)c2)nc1"
< 5.00

Value lookup for pIC50; key = "CN(C)CCCNC(=O)c1ccc(CNS(=O)(=O)c2ccc(F)c(Cl)c2)cn1"
< 5.00

Value lookup for pIC50; key = "O=C(NCc1ccncc1)c1ccc(CNS(=O)(=O)c2ccc(F)c(Cl)c2)cn1"
< 5.00

Value lookup for pIC50; key = "Cc1cnc(CNC(=O)c2ccc(CNS(=O)(=O)c3ccc(F)c(Cl)c3)nc2)cn1"
6.00 to 7.00

Value lookup for pIC50; key = "O=C(NCc1ncccn1)c1ccc(CNS(=O)(=O)c2ccc(F)c(Cl)c2)nn1"
< 5.00

Value lookup for pIC50; key = "COc1ccc(CNC(=O)c2ccc(CNS(=O)(=O)c3ccc(F)c(Cl)c3)cn2)cc1"
< 5.00

Value lookup for pIC50; key = "Cn1cnc(CNC(=O)c2ccc(CNS(=O)(=O)c3ccc(F)c(Cl)c3)nc2)c1"
< 5.00

Value lookup for pIC50; key = "O=C(NCc1cnccn1)c1ccc(CNS(=O)(=O)c2ccc(F)c(Cl)c2)nc1"
6.00 to 7.00

Value lookup for pIC50; key = "O=C(NCc1ccno1)c1ccc(CNS(=O)(=O)c2ccc(F)c(Cl)c2)cn1"
5.00 to 6.00

Value lookup for pIC50; key = "O=C(NCc1ccsc1)c1ccc(CNS(=O)(=O)c2ccc(F)c(Cl)c2)cn1"
< 5.00

Value lookup for pIC50; key = "COc1ccc(CNC(=O)c2ccc(CNS(=O)(=O)c3ccc(F)c(Cl)c3)nc2)cn1"
< 5.00

Value lookup for pIC50; key = "Cc1ccncc1CNC(=O)c1cnc(CNS(=O)(=O)c2ccc(F)c(Cl)c2)cn1"
6.00 to 7.00
